Consider the following molecules and their measured MIC readings.
Tested on: Staphylococcus aureus
Assay: Antibacterial activity against methicillin-resistant Staphylococcus aureus isolate 7 after 24 hrs by broth microdilution method
Assay type: functional
Conditions: isolate 7, 24 h

{"molecule": "O=C(N/N=C/c1ccc([N+](=O)[O-])o1)c1ccccc1", "qualifier": "=", "MIC / µg/mL": 125}
{"molecule": "O=C(CCc1ccccc1O)c1ccccc1", "qualifier": "≥", "MIC / µg/mL": 1000}
{"molecule": "O=C(CCc1ccc(O)cc1)c1c(O)cc(O)cc1O [PHLORETIN]", "qualifier": "=", "MIC / µg/mL": 250}
{"molecule": "CN[C@H](CC(C)C)C(=O)N[C@H]1C(=O)N[C@@H](CC(N)=O)C(=O)N[C@H]2C(=O)N[C@H]3C(=O)N[C@H](C(=O)N[C@H](C(=O)O)c4cc(O)cc(O)c4-c4cc3ccc4O)[C@H](O)c3ccc(c(Cl)c3)Oc3cc2cc(c3O[C@@H]2O[C@H](CO)[C@@H](O)[C@H](O)[C@H]2O[C@H]2C[C@](C)(N)[C@H](O)[C@H](C)O2)Oc2ccc(cc2Cl)[C@H]1O [VANCOMYCIN]", "qualifier": "=", "MIC / µg/mL": 0.8}
{"molecule": "CC(C)=CCc1c(O)ccc(C(=O)/C=C/c2ccc(O)cc2)c1O [ISOBAVACHALCONE]", "qualifier": "=", "MIC / µg/mL": 125}
{"molecule": "COc1ccc(C(=O)/C=C/c2ccc(O)cc2)c(O)c1CC=C(C)C", "qualifier": "≥", "MIC / µg/mL": 1000}
{"molecule": "COc1cc(C(=O)N/N=C/c2ccc([N+](=O)[O-])s2)cc(OC)c1OC", "qualifier": "=", "MIC / µg/mL": 125}
{"molecule": "O=C(/C=C/c1ccc(O)cc1)c1ccc(O)cc1O [ISOLIQUIRITIGENIN]", "qualifier": "=", "MIC / µg/mL": 62.5}
